tested on: spontaneously hypertensive rats; assay: Hypotensive effect: systolic blood pressure of spontaneously hypertensive rats; assay type: in vivo; conditions: dose 10mg/kg oral; at 4 hours; mmHg per method
property name: B.P. (systolic blood pressure reduction) (mm)

INSERT INTO assay_data (compound, property_name, quantitative_result) VALUES
  ('CC1=C(C(=O)OCCc2ccccc2)C(c2c(F)c(F)c(F)c(F)c2F)C2=C(CNCC2=O)N1 (stereo not shown) [Example 18]', 'B.P. (systolic blood pressure reduction)', -24),
  ('CO[C@@H](COC(=O)C1=C(C)NC2=C(C(=O)CNC2)C1c1c(F)c(F)c(F)c(F)c1F)c1ccccc1 (stereo partly shown) [Example 6]', 'B.P. (systolic blood pressure reduction)', -49),
  ('CO[C@H](COC(=O)C1=C(C)NC2=C(C(=O)CNC2)C1c1c(F)c(F)c(F)c(F)c1F)c1ccccc1 (stereo partly shown) [Example 7]', 'B.P. (systolic blood pressure reduction)', -54),
  ('COC(COC(=O)C1=C(C)NC2=C(C(=O)CNC2)C1c1cccc(Cl)c1C)c1ccccc1 (stereo not shown) [Example 10]', 'B.P. (systolic blood pressure reduction)', -19);

Origin of values: patent EP0211584A1
